Molecular target: PRMT5-MTA (Homo sapiens)
Sequence (O14744 whole entry): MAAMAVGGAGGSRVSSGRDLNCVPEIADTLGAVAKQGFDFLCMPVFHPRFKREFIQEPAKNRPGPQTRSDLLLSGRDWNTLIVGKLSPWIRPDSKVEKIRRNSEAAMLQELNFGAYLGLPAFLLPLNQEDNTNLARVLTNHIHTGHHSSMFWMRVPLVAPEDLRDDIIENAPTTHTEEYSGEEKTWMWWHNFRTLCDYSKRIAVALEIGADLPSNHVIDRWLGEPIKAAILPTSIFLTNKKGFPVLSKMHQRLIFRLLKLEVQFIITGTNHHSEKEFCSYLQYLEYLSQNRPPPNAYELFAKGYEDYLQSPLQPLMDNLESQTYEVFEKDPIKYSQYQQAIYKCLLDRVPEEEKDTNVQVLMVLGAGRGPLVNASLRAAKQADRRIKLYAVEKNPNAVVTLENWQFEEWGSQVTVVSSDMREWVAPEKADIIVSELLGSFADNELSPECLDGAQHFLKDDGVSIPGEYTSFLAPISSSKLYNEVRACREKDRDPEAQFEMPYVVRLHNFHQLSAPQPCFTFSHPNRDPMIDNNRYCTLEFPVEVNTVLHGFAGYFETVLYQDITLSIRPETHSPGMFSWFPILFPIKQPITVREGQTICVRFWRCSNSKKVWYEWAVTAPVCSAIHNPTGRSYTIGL
Sequence (Q9BQA1 whole entry partner): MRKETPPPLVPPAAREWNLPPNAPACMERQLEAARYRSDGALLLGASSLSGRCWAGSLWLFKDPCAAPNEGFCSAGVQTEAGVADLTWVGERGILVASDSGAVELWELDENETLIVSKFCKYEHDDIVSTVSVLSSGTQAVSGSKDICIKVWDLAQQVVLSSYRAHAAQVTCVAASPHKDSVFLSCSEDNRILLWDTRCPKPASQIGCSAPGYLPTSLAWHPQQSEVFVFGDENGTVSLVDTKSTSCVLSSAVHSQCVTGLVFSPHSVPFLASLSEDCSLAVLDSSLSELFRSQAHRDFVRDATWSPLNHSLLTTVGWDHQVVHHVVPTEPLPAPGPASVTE
Experiment: Enzymatic inhibitory activity against PRMT5-MTA (AlphaScreen)
Assay type: biochemical
Conditions: read-out: IC50

{"Molecule": "Cn1ncc2c(N)nc3cc(Cl)c(C(=O)N4CC(C)(F)CN4c4ncc(Cl)cc4F)cc3c21 (stereo not shown) [Example 421]", "Test System": "PRMT5-MTA (Homo sapiens)", "IC50, nM": 3.3}
{"Molecule": "Cc1cc2cc(C(=O)N(Cc3ccc(C4CC4)cn3)N(C)c3ncccc3C(F)(F)F)ccc2nc1N [Example 196]", "Test System": "PRMT5-MTA (Homo sapiens)", "IC50, nM": 5.7}
{"Molecule": "Cc1cc2nc(N)c3cnn(C)c3c2cc1C(=O)N1CC(C)CN1c1ncc(-c2cccnc2)cc1F (stereo not shown) [Example 484]", "Test System": "PRMT5-MTA (Homo sapiens)", "IC50, nM": 6.4}
{"Molecule": "Cc1cc2nc(N)c3cnn(C)c3c2cc1C(=O)N1C(C)CCN1c1ncccn1 (stereo not shown) [Example 373]", "Test System": "PRMT5-MTA (Homo sapiens)", "IC50, nM": 7.5}
{"Molecule": "CC1CN(C(=O)c2cc3c(cc2F)nc(N)c2cnn(C)c23)N(c2ncccc2F)C1 (single isomer, unassigned) [Example 466]", "Test System": "PRMT5-MTA (Homo sapiens)", "IC50, nM": 4.4}
{"Molecule": "Cn1ncc2c(N)nc3cc(Cl)c(C(=O)N4CC(F)(F)CN4c4ncc(F)cc4F)cc3c21 [Example 458]", "Test System": "PRMT5-MTA (Homo sapiens)", "IC50, nM": 5.1}
{"Molecule": "Cc1cc2cc(C(=O)N(Cc3ccc(C(F)(F)F)cn3)N(C)c3ncccc3C(F)F)ccc2nc1N [Example 117]", "Test System": "PRMT5-MTA (Homo sapiens)", "IC50, nM": 1.8}
